molecular target: T1, recombinant CD47 (recCD47), SinoBiological 12283-H27H-B, biotinylated (human, UniProt Q08722 19-139, biotinylated (AVI-tag)); assay: SPR Biacore S200, single-cycle, recCD47 on SA chip 100 RU, antibody as analyte, 25 C, 1:1 model;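 further: antibodies were injected over the captured CD47 at a series of concentrations, and KD was derived as the dissociation rate constant divided by the association rate constant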
T1 construct: Bought protein, 17 kDa; At 17 kDa it can only be a part of it; also called recombinant biotinylated CD47; not shown: C-terminal His- and AVI-tag
T1 sequence (Q08722 19-139 limits assumed): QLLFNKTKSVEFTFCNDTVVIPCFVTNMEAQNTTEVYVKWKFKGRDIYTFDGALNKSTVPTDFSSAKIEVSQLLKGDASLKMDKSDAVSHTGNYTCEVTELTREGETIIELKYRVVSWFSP
Each entry below carries its recorded Kd.
Return type: number; implicit unit nM.

{"binder": "CO204 humanized IgG4 anti-CD47 antibody (antibody, V domains shown, also called huCO-mAb) VH: QVQLVQSGSELKKPGASVKVSCKASGYTFTNFGMHWVRQAPGKGLKWMGWINTYTGEPTYTDDFKGRFVFSLDTSVSTAYLQISSLKAEDTAVYYCTRGDYRYGDSWGQGTTVTVSS VL: DIVMTQTPLSLSVTPGQPASISCRSSQSLVHSNGKTYLHWYLQKPGQPPQLLIYRVSNRFSGVPDRFSGSGSGTDFTLKISRVEAEDVGVYYCSQSTHVPFTFGQGTKLEIK", "Kd, nM": 0.0149}
{"binder": "CO213 humanized IgG4 anti-CD47 antibody (antibody, V domains shown, also called huCO-mAb) VH: QVQLVQSGSELKKPGASVKVSCKASGYTFTNFGMHWVRQAPGQGLKWMGWINTYTGEPTYTDDFKGRFVFSLDTSVSTAYLQISSLKAEDTAVYYCARGDYRYGDSWGQGTTVTVSS VL: DIVMTQTPLSLSVTPGQPASISCRSSQSLVHSNGKTYLHWYLQKPGQPPQLLIYRVSNRFSGVPDRFSGSGSGTDFTLKISRVEAEDVGVYYCSQSTHVPFTFGQGTKLEIK", "Kd, nM": 0.032}

# evaluate next
For this binder ( CO201 humanized IgG4 anti-CD47 antibody (antibody, V domains shown, also called huCO-mAb) VH: QVQLVQSGSELKKPGASVKVSCKASGYTFTNFGMHWVRQAPGQGLEWMGWINTYTGEPTYTDDFKGRFVFSLDTSVSTAYLQISSLKAEDTAVYYCARGDYRYGDSWGQGTTVTVSS VL: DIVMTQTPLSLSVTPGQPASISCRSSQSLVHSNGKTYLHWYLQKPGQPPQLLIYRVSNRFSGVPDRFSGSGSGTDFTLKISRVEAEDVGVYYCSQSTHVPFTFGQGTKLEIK ), measured Kd is 0.0499
